Entries and their IC50 values follow.
- assayTarget: CLK2(h) (Homo sapiens)
- Construct: purchased Eurofins, Dundee, Scotland
- Sequence (P49760 whole entry): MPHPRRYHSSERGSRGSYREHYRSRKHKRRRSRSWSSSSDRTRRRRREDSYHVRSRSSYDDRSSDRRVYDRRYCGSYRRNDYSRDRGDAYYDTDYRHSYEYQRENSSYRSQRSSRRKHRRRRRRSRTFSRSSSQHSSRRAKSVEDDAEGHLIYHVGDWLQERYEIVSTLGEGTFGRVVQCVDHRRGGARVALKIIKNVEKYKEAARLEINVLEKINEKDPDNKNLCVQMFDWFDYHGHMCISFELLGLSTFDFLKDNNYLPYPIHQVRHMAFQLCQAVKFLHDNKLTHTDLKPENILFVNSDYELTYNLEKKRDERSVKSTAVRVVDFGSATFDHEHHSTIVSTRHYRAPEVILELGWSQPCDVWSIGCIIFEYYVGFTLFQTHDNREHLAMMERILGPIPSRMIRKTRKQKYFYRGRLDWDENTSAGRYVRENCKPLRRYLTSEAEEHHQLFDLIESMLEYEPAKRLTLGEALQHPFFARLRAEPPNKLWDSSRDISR
- protocolDescription: radiometric protein kinase assay, CLK2
- Assay type: biochemical
- statedConditions: enzyme inhibition, ATP 10 μM
property: IC50 (nM)

• CC(C)n1cnc2c(Nc3cccc(Cl)c3)nc(N[C@H]3CCCC[C@@H]3N)nc21 = 16
• CCn1cnc2c(Nc3cccc(Cl)c3)nc(NC3CCCCC3N)nc21 (racemic) [CGP-74514A (1), reference compound] = 111
• CC(C)n1cnc2c(Nc3cc(N)cc(Cl)c3)nc(N[C@H]3CCCC[C@H]3N)nc21 = 26
